target: UniProt P00533; assay: Induction of EGFR degradation in human MDA-MB-231 cells assessed as reduction in EGFR expression incubated for 48 hrs by immunoblot analysis; type: cell-based
Sequence (P00533 whole entry): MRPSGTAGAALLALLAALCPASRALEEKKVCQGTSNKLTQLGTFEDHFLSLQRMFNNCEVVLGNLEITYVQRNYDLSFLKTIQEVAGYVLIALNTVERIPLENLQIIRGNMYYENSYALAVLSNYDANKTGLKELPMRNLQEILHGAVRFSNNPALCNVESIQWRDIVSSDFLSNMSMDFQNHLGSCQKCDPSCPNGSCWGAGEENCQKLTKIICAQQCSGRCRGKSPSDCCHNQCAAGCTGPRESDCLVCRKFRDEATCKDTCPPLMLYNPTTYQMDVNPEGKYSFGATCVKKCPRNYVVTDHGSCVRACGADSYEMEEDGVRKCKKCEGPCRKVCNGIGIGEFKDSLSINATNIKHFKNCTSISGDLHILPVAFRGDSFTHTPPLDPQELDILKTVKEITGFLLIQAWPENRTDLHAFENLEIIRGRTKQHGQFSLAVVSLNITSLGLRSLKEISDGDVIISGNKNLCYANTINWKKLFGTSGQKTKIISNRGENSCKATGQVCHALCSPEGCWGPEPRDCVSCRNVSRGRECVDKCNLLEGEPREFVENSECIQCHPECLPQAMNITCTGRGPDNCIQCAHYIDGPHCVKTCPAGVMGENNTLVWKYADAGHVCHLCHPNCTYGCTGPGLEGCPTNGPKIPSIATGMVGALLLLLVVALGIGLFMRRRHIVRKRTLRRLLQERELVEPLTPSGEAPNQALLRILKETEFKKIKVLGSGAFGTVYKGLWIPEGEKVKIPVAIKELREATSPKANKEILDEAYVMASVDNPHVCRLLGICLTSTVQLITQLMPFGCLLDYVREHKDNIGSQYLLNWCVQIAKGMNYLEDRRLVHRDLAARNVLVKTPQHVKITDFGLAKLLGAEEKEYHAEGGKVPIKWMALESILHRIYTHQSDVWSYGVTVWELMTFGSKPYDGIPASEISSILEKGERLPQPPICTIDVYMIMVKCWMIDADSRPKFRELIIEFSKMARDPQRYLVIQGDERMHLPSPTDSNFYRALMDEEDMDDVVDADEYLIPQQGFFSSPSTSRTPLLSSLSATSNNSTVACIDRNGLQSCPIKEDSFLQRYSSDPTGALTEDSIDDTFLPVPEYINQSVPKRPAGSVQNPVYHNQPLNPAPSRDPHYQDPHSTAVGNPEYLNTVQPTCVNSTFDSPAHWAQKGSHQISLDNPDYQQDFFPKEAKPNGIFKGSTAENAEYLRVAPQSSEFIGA
The source made the active and inactive calls. The calls are words filed in the database; no cut-off is given here.
Select the correct class. Options are true (1) (active), false (0) (inactive) and nothing else.

Example entries begin here.
[[record]]
smiles_notation = "COc1ccc(NC(=O)Nc2cccc(-c3nc(-c4ccc(NC(=O)c5cccnc5)cc4Cl)no3)c2)cc1C(F)(F)F"
category = "false (0)"

[[record]]
smiles_notation = "O=C(Nc1ccc(NS(=O)(=O)C2CC2)cc1)Nc1cccc(-c2nc(-c3ccc(NC(=O)c4cccnc4)cc3Cl)no2)c1"
category = "true (1)"

[[record]]
smiles_notation = "O=C(Nc1cccc(-c2nc(-c3ccc(NC(=O)c4cccnc4)cc3Cl)no2)c1)Nc1ccc(NC(=O)C2CC2)c(C(F)(F)F)c1"
category = "true (1)"

[[record]]
smiles_notation = "CS(=O)(=O)Nc1ccc(NC(=O)Nc2cccc(-c3nc(-c4ccc(NC(=O)c5cccnc5)cc4Cl)no3)c2)cc1Cl"
category = "false (0)"

[[record]]
smiles_notation = "O=C(Nc1cccc(-c2nc(-c3ccc(NC(=O)c4cccnc4)cc3Cl)no2)c1)Nc1cccc(C(F)(F)F)c1"
category = "false (0)"

[[record]]
smiles_notation = "O=C(Nc1cccc(-c2nc(-c3ccc(NC(=O)c4cccnc4)cc3Cl)no2)c1)Nc1ccc(NC(=O)C2CCCC2)c(C(F)(F)F)c1"
category = "true (1)"


Proceed to the following item.
Enquiry: Lab log entry: CS(=O)(=O)Nc1ccc(NC(=O)Nc2cccc(-c3nc(-c4ccc(NC(=O)c5cccnc5)cc4Cl)no3)c2)cc1 — outcome as called in the assay?
Return: false (0)

Just for reference, ChEMBL document CHEMBL4359903 is where these values come from.
